System name: T1, human CD33 (human, UniProt P20138 18-259, limits assumed)
T1 construct: Human CD33 immobilized on the BLI sensor tip or the BIAcore C1 chip; also called Siglec-3
T1 sequence (P20138 18-259 limits assumed): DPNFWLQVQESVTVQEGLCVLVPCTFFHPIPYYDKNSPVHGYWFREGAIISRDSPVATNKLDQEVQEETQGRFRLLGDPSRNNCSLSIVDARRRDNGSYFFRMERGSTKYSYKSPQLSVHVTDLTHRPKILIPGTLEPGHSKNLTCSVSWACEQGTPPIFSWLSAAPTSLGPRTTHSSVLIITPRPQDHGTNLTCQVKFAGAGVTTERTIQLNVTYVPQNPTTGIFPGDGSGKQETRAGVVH
Protocol description: BLI (ForteBio), Fab; column looks row-shifted against KD
Experimental: The affinities (KD) of the humanized antibodies for human CD33 were measured for each antibody by BioLayer Interferometry in a ForteBio assay according to standard techniques (Estep et al. (2013) MAbs 5(2): 270-8). […] The assay was carried out at room temperature. The affinities of AB-H14 and its affinity-matured variants (Table 15) and AB-H63 and its affinity-matured variants (Table 16), for human CD33 were measured by Fortebio assay according to the method described in Example 1 above.
Observable: koff
Hey, just the number and the unit after it is fine.

| Binder | koff |
| --- | --- |
| AB-63.6 (antibody, V domains shown) VH: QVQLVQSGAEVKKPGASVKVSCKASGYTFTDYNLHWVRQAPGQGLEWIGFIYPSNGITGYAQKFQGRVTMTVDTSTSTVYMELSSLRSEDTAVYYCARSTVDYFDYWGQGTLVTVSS VL: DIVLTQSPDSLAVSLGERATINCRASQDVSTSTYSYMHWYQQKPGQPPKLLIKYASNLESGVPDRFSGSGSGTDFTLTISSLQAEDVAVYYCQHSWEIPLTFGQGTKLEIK | 0.00176 s⁻¹ |
| AB-63.11 (antibody, V domains shown) VH: QVQLVQSGAEVKKPGASVKVSCKASGYTFTDYNFHWVRQAPGQGLEWIGFIYPANGITGYAQKDQGRVTMTVDTSTSTVYMELSSLRSEDTAVYYCARSDVDYFDYWGQGTLVTVSS VL: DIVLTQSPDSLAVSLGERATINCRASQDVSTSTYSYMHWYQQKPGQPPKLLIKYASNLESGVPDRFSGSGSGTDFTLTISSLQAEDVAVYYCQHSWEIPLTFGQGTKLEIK | 0.0002 s⁻¹ |

As a next step, examine the binder that follows.
Query string: Value lookup for koff; key = AB-63.18 (antibody, V domains shown) VH: QVQLVQSGAEVKKPGSSVKVSCKASGYTHTDYNLHWVRQAPGQGLEWIGFIYPSNGITGYAQKFQGRVTMTVDTSTSTVYMELSSLRSEDTAVYYCARSDVDYFDYWGQGTLVTVSS VL: DIVLTQSPDSLAVSLGERATINCRASQSVSTSTYSYMHWYQQKPGQPPKLLIKYESNLESGVPDRFSGSGSGTDFTLTISSLQAEDVAVYYCQHSWEIPLTFGQGTKLEIK
Result string: 0.000204 s⁻¹

Origin of measurements: patent US20190040131A1
